Target: MAP4K4 (Homo sapiens, UniProt O95819)
Sequence (O95819 whole entry, the tested form may be a part): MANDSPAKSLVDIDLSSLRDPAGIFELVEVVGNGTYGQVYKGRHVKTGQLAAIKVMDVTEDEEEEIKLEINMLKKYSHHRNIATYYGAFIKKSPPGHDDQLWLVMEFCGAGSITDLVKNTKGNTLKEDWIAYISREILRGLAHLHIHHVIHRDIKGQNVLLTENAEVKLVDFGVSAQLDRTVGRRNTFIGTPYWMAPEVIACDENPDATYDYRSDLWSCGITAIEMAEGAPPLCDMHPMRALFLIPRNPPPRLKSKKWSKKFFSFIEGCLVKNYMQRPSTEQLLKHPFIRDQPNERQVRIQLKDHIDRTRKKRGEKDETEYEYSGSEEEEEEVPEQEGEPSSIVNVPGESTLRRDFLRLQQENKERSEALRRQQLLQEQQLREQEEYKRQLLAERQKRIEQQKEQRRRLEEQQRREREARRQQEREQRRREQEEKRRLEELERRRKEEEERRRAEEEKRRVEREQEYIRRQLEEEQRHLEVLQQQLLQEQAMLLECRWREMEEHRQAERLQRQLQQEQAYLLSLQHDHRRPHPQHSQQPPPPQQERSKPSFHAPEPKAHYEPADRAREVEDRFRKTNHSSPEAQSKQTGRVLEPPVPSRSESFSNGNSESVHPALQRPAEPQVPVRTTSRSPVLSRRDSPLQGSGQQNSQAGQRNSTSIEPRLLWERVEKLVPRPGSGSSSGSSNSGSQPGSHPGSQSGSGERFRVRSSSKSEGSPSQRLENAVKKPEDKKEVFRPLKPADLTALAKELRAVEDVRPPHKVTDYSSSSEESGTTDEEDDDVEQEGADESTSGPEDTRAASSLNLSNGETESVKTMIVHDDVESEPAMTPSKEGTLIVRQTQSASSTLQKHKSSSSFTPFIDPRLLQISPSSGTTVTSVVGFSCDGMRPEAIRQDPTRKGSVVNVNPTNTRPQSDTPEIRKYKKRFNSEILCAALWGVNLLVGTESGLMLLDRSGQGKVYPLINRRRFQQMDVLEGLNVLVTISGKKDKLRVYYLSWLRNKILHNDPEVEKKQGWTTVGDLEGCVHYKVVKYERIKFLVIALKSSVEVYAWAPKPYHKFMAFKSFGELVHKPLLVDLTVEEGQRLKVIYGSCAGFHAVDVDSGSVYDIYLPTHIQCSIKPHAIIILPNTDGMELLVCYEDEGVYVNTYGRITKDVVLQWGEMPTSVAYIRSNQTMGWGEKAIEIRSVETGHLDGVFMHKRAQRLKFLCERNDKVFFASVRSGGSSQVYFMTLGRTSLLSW
Test: Inhibition of recombinant human GST-tagged MAP4K4 catalytic domain (1 to 328 residues) expressed in baculovirus expression system at 25 uM using FRET-labeled Ser/Thr 07 peptide as substrate measured after 1 hr by Z'-lyte assay relative to control
Details: probe FRET-labeled Ser/Thr 07 peptide
Readout: inhibition at 1 h, 25 µM (%)
Expressed in %, but write only the number.

{"columns": ["Compound Structure String", "inhibition at 1 h, 25 µM / %"],
 "data": [
  ["CC(C)COc1cccc(Cl)c1-c1cc2cnc(N)nc2nc1N1C[C@@H]2[C@@H](N)[C@@H]2C1", 24],
  ["Nc1ncc2cc(-c3c(Br)cccc3Br)c(N)nc2n1", 52]
]}

# next molecule below
## Input Bench note: what inhibition at 1 h, 25 µM did Nc1ncc2cc(-c3c(Cl)cccc3-c3cccnc3)c(N3C[C@@H]4[C@@H](N)[C@@H]4C3)nc2n1 show?
## Output 21
